- measurement description: FRG1 promoter luciferase signal modulators, primary screen, FRG1 inhibition for FSHD, cell-based, C2C12 myotubes, firefly/Renilla luciferase, luminescence (AID 1084)
- condition parameters: higher = more signal, called active from +8 up or from −8 down
reported endpoint: z-score
The reply should be a number, written without any unit.

These solved cases illustrate the format of a correct answer.
molecule | z-score
N#Cc1ccc(NN2C(C(O)C(c3ccccc3)c3ccccc3)C=CC3C(=O)N(c4ccccc4)C(=O)C32)cc1 (stereo not drawn) | -0.621
CC(C)C(=C=CC[C@@H](O)c1ccc(OCCO)cc1)C[C@@H](O)COCc1ccccc1 | -1.74
CC(C)NC(=O)[C@@H]1c2ccccc2C(=O)N(C2Cc3ccccc3C2)[C@H]1c1ccc(CO)cc1 | -0.943
CC(C)C[C@@H]1NC(=O)[C@H](C(C)C)NC(=O)[C@@]23C(=O)N[C@@H](Cc4ccccc4)C2[C@H](C)[C@@]2(C)O[C@H]2C3/C=C/CC/C=C/CNC1=O (stereo partly drawn) | -0.537
COCCOC(=O)N1C(=O)[C@@]2(c3cc(C#CCCO)ccc31)[C@H](C(N)=O)[C@H]1C(=O)O[C@H](c3ccccc3)[C@H](c3ccccc3)N1[C@@H]2c1ccc(O)cc1 | 0.663

Supply z-score value. Item: COc1ccccc1CN1C(=O)c2ccccc2[C@@H](C(=O)NC2CC2)[C@@H]1c1ccc(CO)cc1 -3.17

Read off the recorded z-score for C=C(CCCC)C(=O)CC[C@@H](OC(=O)c1ccccc1-c1ccccc1C(=O)O)c1ccc(OCCO)cc1 -0.109

Provide measured z-score value, entry: COc1ccc(/C=C/C=O)cc1 0.599

###

Measured composite z-score, listed per entry.
- Tested on: Human papillomavirus type 1a E7 protein (residues 1-88)
- measurement description: HPV1a E7 small-molecule binders, primary screen, biochemical, small-molecule microarray, residues 1-88, 635 nm (AID 1129)
- condition parameters: small-molecule microarray binding, fluorescence 635 nm; higher = more signal

A selection of reference data follows.
compound | tested system | composite z-score
CO[C@H]1O[C@H](CO)[C@@H](OC(=O)Nc2ccc(Oc3ccccc3)cc2)[C@H](OC(=O)Nc2ccc3c(c2)OCO3)[C@H]1OC(=O)Nc1ccc2c(c1)OCO2 | Human papillomavirus type 1a E7 protein (residues 1-88) | 1.2
CC(C)C[C@@H]1NC(=O)[C@@H]2C[C@H](C(=O)NCc3ccc(F)cc3)[C@H](c3cccc(OCCO)c3)N2C1=O | Human papillomavirus type 1a E7 protein (residues 1-88) | 0.135
C=CCNC(=O)[C@H]1[C@@H]2C(=O)O[C@@H](c3ccccc3)[C@@H](c3ccccc3)N2[C@@H](c2ccccc2OCCO)[C@]12C(=O)Nc1ccc(C#CCC(C(=O)OC)C(=O)OC)cc12 | Human papillomavirus type 1a E7 protein (residues 1-88) | 1.26
N#Cc1ccc(NN2C(C(O)C(c3ccccc3)c3ccccc3)C=CC3C(=O)N(c4ccccc4)C(=O)C32)cc1 (stereo not drawn) | Human papillomavirus type 1a E7 protein (residues 1-88) | 1.26
C=C[C@H](CO)NS(=O)(=O)c1ccc(Br)cc1 | Human papillomavirus type 1a E7 protein (residues 1-88) | 0.446

Find the measured composite z-score of CC(C)=CCN[C@H](CO)c1ccccc1 and report it. -0.341

Output measured composite z-score for this item: O=C(c1ccccc1)N1C(=O)[C@@]2(Cc3ccccc31)N=C(c1ccc(OCCCO)cc1)O[C@H]2c1ccccc1 1.21

Please look at this compound and report its composite z-score: COCC(=C=CC[C@@H](O)c1cccc(OCCO)c1)C[C@@H](O)c1ccccn1 0.467

Cited source: PubChem BioAssay
